AIRE transcriptional activation functional score by entry:
B1: library; numbered along this chain (parent)
chain: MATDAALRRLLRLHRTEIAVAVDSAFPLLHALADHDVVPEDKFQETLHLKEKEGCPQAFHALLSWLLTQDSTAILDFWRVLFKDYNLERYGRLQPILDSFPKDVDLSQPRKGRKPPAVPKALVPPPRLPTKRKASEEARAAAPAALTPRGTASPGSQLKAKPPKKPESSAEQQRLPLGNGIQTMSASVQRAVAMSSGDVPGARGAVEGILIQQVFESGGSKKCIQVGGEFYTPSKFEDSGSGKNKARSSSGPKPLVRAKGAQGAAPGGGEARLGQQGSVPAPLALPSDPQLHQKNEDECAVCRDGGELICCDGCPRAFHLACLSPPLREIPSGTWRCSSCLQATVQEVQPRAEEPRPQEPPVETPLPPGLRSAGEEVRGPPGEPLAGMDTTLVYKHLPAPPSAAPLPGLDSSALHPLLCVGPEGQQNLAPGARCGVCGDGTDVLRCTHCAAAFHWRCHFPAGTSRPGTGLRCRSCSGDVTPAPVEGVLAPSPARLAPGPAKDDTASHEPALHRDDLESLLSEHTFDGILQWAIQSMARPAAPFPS

variants of: B1; assay: AIRE transcriptional activation functional score (insulin promoter-GFP; nonsense median 0, synonymous median 1) (normalised score); higher = higher AIRE activity (more reporter activation); conditions: with insulin promoter-GFP reporter in HEK293
I'd appreciate a reply containing only the number, no unit.

Check out these entries, answers already filled in.
1. T147V: 0.966
2. E298L: 0.839
3. H319Y: 0.961
4. S217V: 0.98
5. L320A: 1.19
6. Y394Q: -0.333
7. Q44S: 0.392
8. P460A: 1.14
9. P325N: 0.521
10. A5S: 1.24

Kindly note the recorded AIRE transcriptional activation functional score for S332K , which is 0.518

The variant listed as S241R has a reported AIRE transcriptional activation functional score of 0.436

So for A261D , the logged AIRE transcriptional activation functional score turned out to be 0.731

Recorded result, S220Q , AIRE transcriptional activation functional score: -1.55

Form field AIRE transcriptional activation functional score, entry S217E : 0.8
